- Tested on: lactate dehydrogenase (LDH)
- EXPERIMENT NOTES: ELISA analysis of phage on LDH (irrelevant, non-specific target)
- Format: binding
- CONDITION SUMMARY: peptide binding to LDH polypeptide (non-specific binding); phage ELISA units read at 405 nm
READOUT LABEL: LDH (OD)
Write the value in OD as a bare number.

Which LDH (OD) reading was recorded for the sequence CYLSRLFRSGQGIGQFGHVE (DGI-2-20F-PP-A82; listed as Escherichia coli) ?
1.1

Would you kindly share the measured LDH (OD) for DRVARLATPTAGTMAAGSLGYERTVGCDSQDWFRCVVEGL (DGI-2-40F-3-D1044; listed as Escherichia coli) ?
1.3

***
# LDH (OD) lookup, item RPVVCLAGLTLAQFGWVFPGWRGWS (DGI-2-20C-3-C1039; listed as Escherichia coli)
1.0

Requested read-out: LDH (OD). Entry: VVHTRAWGSWAYGFVLRNRG (DGI-2-20F-PP-F10; listed as Escherichia coli)
1.3
